Source listed as PubChem BioAssay (NCI).

Provide the recorded TGI for the entries that follow.
Test system: XF 498 CNS
Assay: NCI tumour cell line growth inhibition, 48 h

// each compound listed below needs its TGI
1. O=C1C(=O)N(c2ccc(Cl)cc2Cl)C(=O)C(=O)C1c1nc2ccccc2o1
2. C/C(=N\N=C(/[Se])N1CC2CCC(CC2)C1)c1ccccn1
3. O=C(OCC1CO1)c1cccs1 (stereo unspecified)
4. O=C1c2c(nc3ccccc3c2-c2ccccc2)CN1Nc1ccccn1
5. Fc1ccc(C2SCc3nc4ccccc4n32)cc1 (stereo unspecified)
6. O=C(CC(=O)N1N=C(N2c3ccccc3Sc3ccccc32)CC1c1ccccc1)Nc1ccc(Cl)cc1 (stereo unspecified)
7. CCOC(=O)C1SC(=Nc2ccc(Cl)c(Cl)c2)N=C1C (stereo unspecified)

A)
1. > 100 µM
2. 0.0981 µM
3. > 100 µM
4. > 100 µM
5. > 100 µM
6. > 100 µM
7. > 100 µM

Value sought for every listed compound: TGI.
1. O=[Se](=O)c1ccccc1.O=[Se](=O)c1ccccc1.[Cu]
2. CCSC1=C(C)N(C=NC(C)(C)C)CC1
3. COc1cc2c[n+](C)c3c4ccccc4ccc3c2cc1OC (tested in a mixture with another compound)
4. Cc1cccc(C2=NC(C)(C)C(C)(C)N=C2c2cccc(C)n2)n1

A)
1. 28.9 µM
2. > 100 µM
3. 17.7 µM
4. > 100 µM

----------
Test system: OVCAR-8 ovarian
Test: NCI tumour cell line growth inhibition, 48 h
Consider the following molecules; for each one, report its TGI.

Example results:
Molecule	Measurement Type	Recorded Measurement
N#Cc1c(N2CCCC2)ncn(Cc2ccccc2)c1=O	TGI	> 100 µM
CCCNC(C#N)c1ccc(C(C#N)NCCC)cc1 (stereo unspecified)	TGI	> 100 µM

Give TGI for all molecules that follow.
1. C/C(=N\NC(N)=S)C(CN(CC(C)C)CC(C)C)C(=O)Nc1ccc(C)cc1C (stereo unspecified)
2. CCSC1=C(C)N(C=NC(C)(C)C)CC1

A)
1. > 100 µM
2. > 100 µM

# batch: return TGI for each of the 2 molecules below
1. COc1ccc2c(c1)N=C1CSC(c3ccccc3Cl)N1C2 (stereo unspecified)
2. CSc1c(C#N)c(=O)[nH]c2n[nH]c(C)c12

A)
1: 42.4 µM; 2: > 100 µM

----------
Tested on: SK-MEL-28 melanoma
Assay: NCI tumour cell line growth inhibition, 48 h; in the data active means GI50 below about 0.43 µM; inactive means the rest
Your answer must be one of the following: y = active, n = inactive

Q) Identify the outcome logged in this assay for the compound shown: `COc1cc(/C=C2\CN(C)C/C(=C\c3cc(CN4CCCCC4)c(O)c(OC)c3)C2=O)cc(CN2CCCCC2)c1O`
A) n

Q) Please state the recorded outcome for this compound: NC1=NC(c2ccc(Cl)cc2)C2=C(N1)/C(=C/c1ccc(Cl)cc1)CCC2 (stereo unspecified)
A) n

Q) Please let me know the test result on file for `CCN1c2ccccc2C(Cl)(c2ccc(N(C)C)cc2)c2ccccc21` .
A) n

Q) Outcome logged for `CN(C)C(=O)c1cc2cnc(Nc3ccc(-c4csc5c(=O)cc(N6CCOCC6)oc45)cc3)nc2n1C1CCCC1` in this assay:
A) y

Q) For `COc1ccc(-c2ccc(-c3ccc(-c4ccc(C(=N)N)cc4)s3)s2)cc1OC` , what call appears in the results of this test?
A) n

Q) Please indicate how the test categorized `O=C(N/N=C/c1ccc([N+](=O)[O-])cc1)c1ccc2nc(-c3ccc(Cl)cc3)[nH]c2c1` .
A) n

Q) Field: outcome | Entry: `N#CCc1ncc(-c2ccc(C(F)(F)F)cc2)c(NC2CCCCCC2)n1`
A) n

Q) For Cc1ccc2c(O)c(O)cc(NC(C)CCCN)c2n1 (stereo unspecified) , which call appears in the assay record?
A) n

Q) What is the recorded call for this compound in the test? COc1cccc2c1C(=O)c1c(O)c3c(c(O)c1C2=O)C[C@@](O)(C(=O)CO)C[C@@H]3OC1C[C@H](N)[C@H](O)[C@H](C)O1 (stereo partly specified)
A) y

Q) Per the assay record, what outcome was assigned to `O=c1[nH]cnc2[nH]ncc12` ?
A) n

Q) Give the logged outcome of this assay for the following compound: `Cc1ccc(SC2=CC(=O)c3nc4ccccc4c4ccnc2c34)cc1`
A) n

----------
Test system: NCI-H226 lung
Assay: NCI tumour cell line growth inhibition, 48 h
Measurement Type: TGI

Look over these answered cases.
Molecule	TGI
COc1cccc(/C=C/c2cnc3ccccc3n2)c1OC	> 100 µM
Cc1nc2ccc(S(=O)(=O)O)cc2c(=O)n1-c1ccc(C(=O)NN2C(=O)C(Cl)C2c2ccccc2O)cc1 (stereo not given)	> 100 µM
Cc1cccc(C2=NC(C)(C)C(C)(C)N=C2c2cccc(C)n2)n1	> 100 µM
C=CCNC(=O)NC1=CSC2=NC(=O)C3(NN12)c1ccccc1-c1ccccc13	> 10 µM

The record that follows has no TGI shown yet.
Q) # input molecule: `COC(=O)/C=C/c1cc(O)c2c(c1)[C@H](C(=O)OC)[C@@H](c1ccc(O)c(O)c1)O2` ; wanted: its TGI
A) > 22.7 µM

----------
Test system: HT29 colon
Assay: NCI tumour cell line growth inhibition, 48 h
Measurement Type: TGI (µM)
Answers are plain numbers, in µM.

Compound String	Value Units	Recorded Measurement
c1ccc2c(c1)[nH]c1cnc3c4cccnc4[nH]c3c12	µM	34.6

Field: next compound
Q) Given the compound `O=C(O)c1cc2cc(OCc3ccccc3)c(OCc3ccccc3)cc2[nH]1` , what is its reported TGI?
A) 59.6

----------
Test system: CAKI-1 renal
Assay: NCI tumour cell line growth inhibition, 48 h
For each record, write down the corresponding TGI.

Previously resolved entries follow.
Molecule	Measurement Type	Recorded Measurement
C=C(C)C(=O)[C@@]12C(=O)[C@@H](C)CC[C@H]1[C@H](C)C[C@@H]2C=C(C)C	TGI	99.5 µM
O=C1c2c(n(Cc3ccccc3)c(=O)n2Cc2ccccc2)C(=O)N1Cc1ccccc1	TGI	> 100 µM
NC(=O)C(c1ccccc1)N1CCOCC1 (configuration not stated)	TGI	> 100 µM
COc1ccccc1C#Cc1ccccc1C#CCCCCCC#Cc1ccccc1C#Cc1ccccc1OC	TGI	> 100 µM
CC(=O)O/N=C1/C(c2c(O)[nH]c3cc(Br)ccc23)=Nc2ccccc21	TGI	2.04 µM
CSC1=C(C#N)C(=O)N(c2ccc(C)cc2)C(=S)C1C#N (configuration not stated)	TGI	> 100 µM

Kindly review the next molecule as well.
Q) Recorded TGI of `CSc1c(C#N)c(=O)[nH]c2n[nH]c(C)c12` , please.
A) > 100 µM

----------
For each record, write down the corresponding TGI.
Test system: RXF 393 renal
Assay: NCI tumour cell line growth inhibition, 48 h

Some entries whose results are on file:
Compound	Tested On	TGI
Cc1ccc2c(O)c(O)cc(NC(C)CCCN)c2n1 (stereo unspecified)	RXF 393 renal	> 100 µM
NS(=O)(=O)c1cccc(N=Cc2c(O)[nH]c3ccccc23)c1	RXF 393 renal	> 25 µM
COC(=O)n1c(=O)n(-c2ccccc2)c(=O)n1C(=O)OC	RXF 393 renal	> 100 µM
Cc1c2c[n+](C(C)C)ccc2c(C)c2c1[nH]c1ccccc12	RXF 393 renal	> 100 µM
[N-]=[N+]=CC(=O)OCC1SCCCS1	RXF 393 renal	> 100 µM

Below: the item to evaluate.
Q) Reported TGI, compound `O=C1c2c(nc3ccccc3c2-c2ccccc2)CN1Nc1ccccn1` : ____
A) > 100 µM

----------
Exercise: state measured log10 of TGI for each of the compounds provided.
Test system: MDA-MB-231 breast
Assay: NCI tumour cell line growth inhibition, 48 h
Remember, log10 of TGI, in µM.

// each compound listed below needs its log10 of TGI
1. O=C(Nc1ccc(Cl)cc1)c1cc(-c2ccc(Cl)cc2)c2sc(=O)[nH]c2n1
2. CC(=O)O/N=C1/C(c2c(O)[nH]c3cc(Br)ccc23)=Nc2ccccc21

A)
1: 0.55; 2: 0.58

State the recorded log10 of TGI for every item in the following list.
1. CC(C)NC(=O)OCc1c(COC(=O)NC(C)C)c(-c2ccc(Cl)cc2)n2c1CCC2
2. CC[C@H](C)[C@H]1NC(=O)[C@@H](NC(=O)[C@@H](CC(C)C)N(C)CC2CCCN2C(=O)C(C)=O)[C@@H](C)OC(=O)[C@H](Cc2ccc(OC)cc2)N(C)C(=O)C2CCCN2C(=O)[C@H](CC(C)C)NC(=O)[C@@H](C)C(=O)[C@H](C(C)C)OC(=O)C[C@@H]1O (stereo not given in full)
3. O=C(Nc1ccccc1O)c1ccc(Oc2cccc(C(=O)Nc3ccccc3O)c2)cc1
4. COc1ccc2c(c1)C(=O)/C(=C/c1ncc([N+](=O)[O-])n1C)O2

A)
1: 1.09; 2: -1.60; 3: 1.07; 4: -0.08

Give one value of log10 of TGI per listed compound.
1. CCOC(=O)/C=C(/C(=O)OCC)n1cc(C)c(=O)n(Cc2cn(COCCOC(C)=O)nn2)c1=O
2. CN1CCN(Cc2ccc(NC(=O)c3ccc(C#Cc4c(N)ncc5ccc(F)cc45)cc3)cc2C(F)(F)F)CC1

A)
1.71
0.31
